Data credit: the supplement of paper PMC10065799

- EXPERIMENTAL TARGET: Fyn (UniProt P06241)
- Sequence (P06241 whole entry, looked up): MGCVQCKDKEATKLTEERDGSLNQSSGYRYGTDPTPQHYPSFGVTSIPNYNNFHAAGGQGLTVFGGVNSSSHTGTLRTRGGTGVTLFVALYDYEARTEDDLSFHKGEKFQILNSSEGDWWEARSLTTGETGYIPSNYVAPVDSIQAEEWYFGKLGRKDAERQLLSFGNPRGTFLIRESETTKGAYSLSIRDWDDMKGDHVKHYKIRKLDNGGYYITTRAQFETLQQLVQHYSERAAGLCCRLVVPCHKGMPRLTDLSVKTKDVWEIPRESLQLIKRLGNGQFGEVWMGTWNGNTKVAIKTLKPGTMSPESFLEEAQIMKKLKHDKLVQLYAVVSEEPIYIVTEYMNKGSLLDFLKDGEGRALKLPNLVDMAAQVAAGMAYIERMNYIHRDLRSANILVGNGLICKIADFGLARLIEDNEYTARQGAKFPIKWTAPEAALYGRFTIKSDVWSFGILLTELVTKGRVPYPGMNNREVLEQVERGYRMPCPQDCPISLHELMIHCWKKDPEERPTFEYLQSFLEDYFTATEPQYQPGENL
- ASSAY OVERVIEW: phosphorylation enrichment, bacterial display (enrichment ratio); higher = better substrate or ligand; peptides without Tyr show the background;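 further: 11-residue human phosphosite peptides and single-mutation variants displayed on the E. coli surface, counted by deep sequencing, each peptide's frequency after selection divided by its frequency in the unselected input library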;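 further: frequency after pTyr selection over input frequency; kinase dosed for 20-30% of maximal phosphorylation in three min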
Would you kindly list phosphorylation enrichment for each of these sequences?
Could you keep your reply to the number by itself?

[Q] Assign phosphorylation enrichment to the following record: GGYTCCCDGKK [PROS1_Y266_Y266C]
[A] 0.507

[Q] Assign phosphorylation enrichment to the following record: FPDFVYKCIKA [DPYSL2_Y479_R481C]
[A] 0.51

[Q] Assign phosphorylation enrichment to the following record: SDFFAYSPVRE [H6PD_Y449_YF]
[A] 0.514

[Q] Assign phosphorylation enrichment to the following record: ELCSEYHKSRK [SPINK5_Y440_R441H]
[A] 0.487

[Q] Assign phosphorylation enrichment to the following record: CSPLLYKVIMS [OR8D4_Y132_R133K]
[A] 0.507
